Cited source: the supplement of paper PMC9170038

test system: K4 kissing-loop RNA reporter; test: apparent KD of K4 kissing-loop reporter; higher = weaker reporter binding; conditions: Eterna round: R107; input ligand: tryptophan 2.4 mM;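 further: bound reporter read as fluorescence of individual clusters on recovered sequencing chips by microscopy, with normalized cluster intensities fitted with a binding model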
endpoint: apparent KD of K4 kissing-loop reporter (nM)
Answer format: numeric, nM implied, no suffix.

Exercise: What value of apparent KD of K4 kissing-loop reporter has been recorded for this entry: `GCCGUACGCAUGGAUACCAGCAUGCAUAUUAGCUAGUGAUGUUAGCGCUAUGCGAUGCUAUGCCCUUGGCAGCCAUGCGUACGGC`
Solution: 132

Exercise: What value of apparent KD of K4 kissing-loop reporter has been recorded for this entry: GGAUAGGACUGAGGAUAUGGGCUAGGCAAGAAUAACUUGUCUAGCAAAUCCAUGAGGAGUGAUGUUCCAGAAGGCAGUCCUAUCG [FmnBX 1 U10+A76]
Solution: 113

Exercise: What value of apparent KD of K4 kissing-loop reporter has been recorded for this entry: UACUAUAGUGAUGUUAUAGAUAAACCAGAUACCAGUGUAACAUAACACCCUUGGCAGCUGAUGAGGGAACUAUUGAAAACAAUAG [AstroSTH-A#7newdesignED4.86]
Solution: 217

Exercise: What value of apparent KD of K4 kissing-loop reporter has been recorded for this entry: AAAUUUAUAUUAGAUACCAGUUUAUUGGAUGUAAAUUAUGACAUGAGUGAUGUUCAUGUAAGCCCUUGGCAGCUGGUAUGGGUUU [KL-XTheo-B22]
Solution: 114

Exercise: What value of apparent KD of K4 kissing-loop reporter has been recorded for this entry: AUACAGCGAAGCGCUAGUGAUGUUAGCGAAGGAGCGACUCAGGAGUCAGGUAGGUCGCGCUAAACAGGUUACGAGAGUAACCAGU [Arg A Ex t1]
Solution: 113

Exercise: What value of apparent KD of K4 kissing-loop reporter has been recorded for this entry: CGCCGCAAGGCGGGCCGGCCCACUCCGGAAGGAGCGCCCGCAAGGGCAGGUAGGUCGCCGGAGUGAUGUUCCGGUGGCCGGCCCG [#2 Exclusion - Arginine A Attempt #3 (Inspired by Omei)]
Solution: 354
